RUN_DESCRIPTION: Hemolytic activity in rat erythrocytes up to 50 uM after 1 hr relative to control
Type: ADME, cell-based, Erythrocyte
TEST_SETTINGS: read-out: Activity
Provide the reported hemolysis at 1 h of each item.

INSERT INTO assay_data (substance, quantity_kind, test_result) VALUES
  ('H-HYKHGK-NH2', 'hemolysis at 1 h', '5 to 6%');

Moving on to another substance below.
The recorded hemolysis at 1 h for entry H-HYKHGKDGR-NH2 equals 5 to 6%

====

RUN_DESCRIPTION: Hemolytic activity in rat erythrocytes at 100 uM after 1 hr relative to control
Assay type: ADME, cell-based, Erythrocyte
TEST_SETTINGS: read-out: Activity
QUANTITY_KIND: hemolysis at 1 h, 100 µM

INSERT INTO results (substance, test_result) VALUES
  ('H-HYKHGK-NH2', '7 to 9%');

Moving on to another substance below.
The recorded hemolysis at 1 h, 100 µM for entry H-HYKHGKDGR-NH2 equals 7 to 9%

====

RUN_DESCRIPTION: n-Octanol-phosphate buffer partition co-efficient, log P of 99mTc(CO)3-labeled compound at 2 to 3 KBq after 1 min by gamma scintillation counting method
Assay type: physicochemical
QUANTITY_KIND: logP at 1 min
Give bare numbers.

INSERT INTO assay_data (substance, quantity_kind, test_result) VALUES
  ('H-HYKHGK-NH2', 'logP at 1 min', -0.978);

Moving on to another substance below.
The recorded logP at 1 min for entry H-HYKHGKDGR-NH2 equals -1.34

====

RUN_DESCRIPTION: Ratio of drug level in tumor to blood of Balb/c mouse allografted with mouse B16F10 cells using 99mTc(CO)3-labeled compound at 10 to 12 MBq/kg, iv measured at 4 hrs
Format: ADME, organism-based, Tumor/tissue
Provide the reported Kp at 4 h of each item.
Answers are plain numbers.

INSERT INTO assay_data (substance, quantity_kind, test_result) VALUES
  ('H-HYKHGKDGR-NH2', 'Kp at 4 h', 0.83);

Moving on to another substance below.
The recorded Kp at 4 h for entry H-HYKHGK-NH2 equals 1.82

====

Provide the reported Kp at 2 h of each item.
RUN_DESCRIPTION: Ratio of drug level in tumor to blood of Balb/c mouse allografted with mouse B16F10 cells using 99mTc(CO)3-labeled compound at 10 to 12 MBq/kg, iv measured at 2 hrs
Assay type: ADME, organism-based, Tumor/tissue
Give bare numbers.

INSERT INTO assay_data (substance, quantity_kind, test_result) VALUES
  ('H-HYKHGK-NH2', 'Kp at 2 h', 0.97);

Moving on to another substance below.
The recorded Kp at 2 h for entry H-HYKHGKDGR-NH2 equals 0.61

====

RUN_DESCRIPTION: Stability in saline assessed as parent compond remaining using 99mTc(CO)3-labeled compound after 24 hrs by TLC method
Type: physicochemical
TEST_SETTINGS: read-out: Stability
Residues, ends and D or L forms follow the SMILES beside them. *: point of attachment. X1 = O=c1nc(N*)ccn1[C@@H]1O[C@H](CO)[C@@H](O)C1(F)F
QUANTITY_KIND: remaining at 24 h

INSERT INTO measurements (compound, quantity_kind, test_result) VALUES
  ('NCCCC[C@H](NC(=O)CNC(=O)[C@H](Cc1cnc[nH]1)NC(=O)[C@H](CCCCN)NC(=O)[C@H](Cc1ccc(O)cc1)NC(=O)[C@@H](N)Cc1cnc[nH]1)C(=O)N[C@@H](CC(=O)Nc1ccn([C@@H]2O[C@H](CO)[C@@H](O)C2(F)F)c(=O)n1)C(N)=O (H-HYKHGKD(X1)-NH2)', 'remaining at 24 h', '≥ 92%');

The recorded remaining at 24 h for entry N=C(N)NCCC[C@H](NC(=O)[C@@H](N)Cc1cnc[nH]1)C(=O)NCC(=O)N[C@@H](CC(=O)Nc1ccn([C@@H]2O[C@H](CO)[C@@H](O)C2(F)F)c(=O)n1)C(N)=O (H-HRGD(X1)-NH2) equals ≥ 92%
